Reported pIC50 by item:
# targetDesc: human neutrophil elastase (HNE) (Homo sapiens)
# Sequence (P08246 30-267): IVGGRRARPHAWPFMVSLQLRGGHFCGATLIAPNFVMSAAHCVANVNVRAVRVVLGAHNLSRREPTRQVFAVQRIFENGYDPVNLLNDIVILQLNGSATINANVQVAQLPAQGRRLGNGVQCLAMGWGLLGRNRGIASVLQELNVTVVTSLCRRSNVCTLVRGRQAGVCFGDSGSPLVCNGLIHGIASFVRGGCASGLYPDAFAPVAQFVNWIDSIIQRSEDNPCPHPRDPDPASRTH
# protocolText: HNE enzyme assay (fluorogenic peptide substrate MeOSuc-Ala-Ala-Pro-Val-AMC)
# testConditions: human leukocyte elastase, substrate 100 μM, 25° C., 30 minutes, at least two separate experiments; read-out: HNE inhibition (IC50 values)
pIC50: −log10 of the molar value.

Example entries and their recorded answers appear below.
{"columns": ["compound", "targetDesc", "observedMeasurement"],
 "data": [
  ["COC(=O)C1=C(C)N(c2cccc(C(F)(F)F)c2)c2nn(CC(=O)N(C)CCC[N+](C)(C)C)c(=O)n2C1c1ccc(C#N)cc1 (stereo not shown)", "human neutrophil elastase (HNE) (Homo sapiens)", "> 7.70"],
  ["COC(=O)C1=C(C)N(c2cccc(C(F)(F)F)c2)c2nn(CC(=O)N(C)CCCCC[N+](C)(C)C)c(=O)n2C1c1ccc(C#N)cc1 (stereo not shown)", "human neutrophil elastase (HNE) (Homo sapiens)", "> 7.70"],
  ["COC(=O)C1=C(C)N(c2cccc(C(F)(F)F)c2)c2nn(CCc3ccc(S(C)(=O)=O)cc3)c(=O)n2[C@@H]1c1ccc(C#N)cc1", "human neutrophil elastase (HNE) (Homo sapiens)", "> 7.70"],
  ["COC(=O)C1=C(C)N(c2cccc(C(F)(F)F)c2)c2nn(CCCN(C)C)c(=O)n2C1c1ccc(C#N)cc1 (stereo not shown)", "human neutrophil elastase (HNE) (Homo sapiens)", "> 7.70"],
  ["COC(=O)C1=C(C)N(c2cccc(C(F)(F)F)c2)c2nn(Cc3ccccc3)c(=O)n2C1c1ccc(C#N)cc1 (stereo not shown)", "human neutrophil elastase (HNE) (Homo sapiens)", "7.00 to 7.70"],
  ["COC(=O)C1=C(C)N(c2cccc(C(F)(F)F)c2)c2nn(CCCS(C)(=O)=O)c(=O)n2[C@@H]1c1ccc(C#N)cc1", "human neutrophil elastase (HNE) (Homo sapiens)", "> 7.70"],
  ["COC(=O)C1=C(C)N(c2cccc(C(F)(F)F)c2)c2nn(CC(=O)N(C)CC[N+](C)(C)C)c(=O)n2C1c1ccc(C#N)cc1 (stereo not shown)", "human neutrophil elastase (HNE) (Homo sapiens)", "> 7.70"],
  ["COC(=O)C1=C(C)N(c2cccc(C(F)(F)F)c2)c2nn(CCCN3CCCC3=O)c(=O)n2C1c1ccc(C#N)cc1 (stereo not shown)", "human neutrophil elastase (HNE) (Homo sapiens)", "> 7.70"],
  ["COC(=O)C1=C(C)N(c2cccc(C(F)(F)F)c2)c2n[nH]c(=O)n2C1c1ccc(C#N)cc1 (stereo not shown)", "human neutrophil elastase (HNE) (Homo sapiens)", "> 7.70"],
  ["COC(=O)C1=C(C)N(c2cccc(C(F)(F)F)c2)c2nn(S(=O)(=O)c3ccc(CN(C)CCN(C)C)cc3)c(=O)n2C1c1ccc(C#N)cc1 (stereo not shown)", "human neutrophil elastase (HNE) (Homo sapiens)", "7.00 to 7.70"]
]}

Ask: pIC50 lookup needed for CC1=C(C(=O)O)C(c2ccc(C#N)cc2)n2c(n[nH]c2=O)N1c1cccc(C(F)(F)F)c1 (stereo not shown) , thanks.
Result: > 7.70

Ask: Which pIC50 is listed for COC(=O)C1=C(C)N(c2cccc(C(F)(F)F)c2)c2nn(CCCN(C)S(C)(=O)=O)c(=O)n2C1c1ccc(C#N)cc1 (stereo not shown) ?
Result: > 7.70

Ask: Find the recorded pIC50 belonging to `COC(=O)C1=C(C)N(c2cccc(C(F)(F)F)c2)c2nn(Cc3ccc(S(C)(=O)=O)cc3)c(=O)n2[C@@H]1c1ccc(C#N)cc1` and report it.
Result: > 7.70
